# testedSystem: Coagulation factor X (Homo sapiens, UniProt P00742)
# Sequence (P00742 41-179 limits assumed): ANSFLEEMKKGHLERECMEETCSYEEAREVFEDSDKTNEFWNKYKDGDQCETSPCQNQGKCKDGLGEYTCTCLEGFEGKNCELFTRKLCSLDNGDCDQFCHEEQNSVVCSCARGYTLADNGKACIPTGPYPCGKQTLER
# Sequence (P00742 235-488 limits assumed): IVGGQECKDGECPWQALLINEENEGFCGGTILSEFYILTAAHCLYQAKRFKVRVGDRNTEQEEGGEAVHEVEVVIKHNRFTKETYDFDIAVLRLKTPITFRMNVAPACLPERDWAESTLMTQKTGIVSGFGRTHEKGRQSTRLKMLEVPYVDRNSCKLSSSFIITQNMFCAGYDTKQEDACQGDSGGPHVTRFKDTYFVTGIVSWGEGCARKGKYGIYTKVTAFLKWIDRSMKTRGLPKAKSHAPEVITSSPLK
pKi: −log10 of the molar value.
experimentalEndpoint: pKi

C[C@@H](C(=O)N1CCOCC1)N1CC[C@H](NS(=O)(=O)C2=Nc3ccc(Cl)cc3C2)C1=O ... 7.05

---

pIC50: −log10 of the molar value.
Entries with reported pIC50 on Coagulation factor X (Homo sapiens, UniProt P00742)
experimentalEndpoint: pIC50

COc1ccc(NC(=O)C(=O)Nc2ccc(Cl)cc2)c(C(=O)Nc2ccc(N3CCOCC3=O)cc2)c1 ... 6.34
COc1cccc(C(=O)Nc2ccc(OC)cc2C(=O)Nc2ccc(N3CCCCC3=O)cc2)c1 ... 6.42
COc1ccc(NC(=O)C(=O)Nc2cccc(Cl)c2)c(C(=O)Nc2ccc(N3CCOCC3=O)cc2)c1 ... 6.21
COc1ccc(NC(=O)c2ccccc2)c(C(=O)Nc2ccc(N3CCCCC3=O)cc2)c1 ... 6.28
COc1ccc(NC(=O)C(=O)Nc2ccc(Cl)cn2)c(C(=O)Nc2ccc(N3CCOCC3=O)cc2)c1 ... 6.53

---

In what follows, each item is paired with its IC50 for Coagulation factor X (Homo sapiens, UniProt P00742).
experimentalEndpoint: IC50 (nM)

CN1CCC2N=C(C(=O)N[C@@H]3CCCC[C@@H]3CNC(=O)c3ccc(Cl)s3)SC2C1 (stereo partly drawn) ... 27
COc1ccc(NC(=O)C(=O)Nc2ccccc2)c(C(=O)Nc2ccc(N3CCOCC3=O)cc2)c1 ... 1120
COc1ccc(NC(=O)C(=O)Nc2ccccc2Cl)c(C(=O)Nc2ccc(N3CCOCC3=O)cc2)c1 ... 798

Where do these numbers come from? They come from ChEMBL document CHEMBL3407352.
